Experiment: NCI Yeast Anticancer Drug Screen. Data for the rad50 strain (AID 155);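 further: 0% = growth of vehicle-only cultures of the same strain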
Settings: S. cerevisiae rad50 strain growth inhibition; at 50.0 µM; stronger effect = higher value
Experimental: Growth inhibition of yeast strains with defined genetic alterations is measured as a screen for potential anti-cancer activity. Selected strains with alterations in DNA damage repair or cell cycle control were exposed to compounds and growth inhibition was measured relative to vehicle treated controls. The strain used in this assay is rad50
The panel holds about 79,000 compounds, 15% with a hit somewhere; the sample as a whole holds those more often.

{"Compound": "CN1C(=O)C(=O)n2c(cc3ccccc32)C1=O", "Unit Symbol": "%", "growth inhibition": 1.15}
{"Compound": "O=[N+]([O-])c1cc(/C=N\\NS(=O)(=O)c2ccc(Cl)cc2)c(O)c([N+](=O)[O-])c1", "Unit Symbol": "%", "growth inhibition": 26.9}
{"Compound": "COc1ccc(C(=O)OCc2ccccc2CN2CCCCC2)cc1", "Unit Symbol": "%", "growth inhibition": -4.75}
{"Compound": "O=C1CCC2(CC1)Cc1ccccc1C2O (stereo not given)", "Unit Symbol": "%", "growth inhibition": -8.75}
{"Compound": "Cc1ccc(/C=N/S(=O)(=O)Cc2ccccc2)cc1", "Unit Symbol": "%", "growth inhibition": -11.6}

Values were extracted from PubChem BioAssay (NCI).
